- Species on record: Rattus norvegicus
- EXPERIMENT SUMMARY: Open TG-GATES - Regimen: Single
- Type: toxicity, organism-based, Sprague-Dawley
- Parameters: regimen Single, gender Male, age 6 weeks
- CONDITION PARAMETERS: in vivo, po, 300 mg/kg, 24 h, tissue Plasma, route gavage, dose level Middle
ASSAY METRIC: TP (g/dL)
Give bare numbers, in g/dL.

INPUT SMILES	UNIT NAME	TP
Cc1nnc2n1-c1ccc(Cl)cc1C(c1ccccc1Cl)=NC2	g/dL	5.4

For each of the compounds below, state TP.
1. COC(=O)C1=C(C)NC(C)=C(C(=O)OC)C1c1ccccc1[N+](=O)[O-]
2. CN/C(=N/CCSCc1nc[nH]c1C)NC#N
3. O=C(OC[C@H]1O[C@@H](OC(=O)c2cc(O)c(O)c(OC(=O)c3cc(O)c(O)c(O)c3)c2)[C@H](OC(=O)c2cc(O)c(O)c(OC(=O)c3cc(O)c(O)c(O)c3)c2)[C@@H](OC(=O)c2cc(O)c(O)c(OC(=O)c3cc(O)c(O)c(O)c3)c2)[C@@H]1OC(=O)c1cc(O)c(O)c(OC(=O)c2cc(O)c(O)c(O)c2)c1)c1cc(O)c(O)c(OC(=O)c2cc(O)c(O)c(O)c2)c1

1: 5.8; 2: 5.6; 3: 5.6

Identify measured TP associated with CNC(=C[N+](=O)[O-])NCCSCc1ccc(CN(C)C)o1
5.3

----------
Answer each item with its documented ALT.
- Organism: Rattus norvegicus
- EXPERIMENT SUMMARY: Open TG-GATES - Regimen: Daily Repeat
- Assay type: toxicity, organism-based, Sprague-Dawley
- Design: regimen Daily Repeat, gender Male, age 6 weeks
- CONDITION PARAMETERS: in vivo, po, 1000 mg/kg, 72 h, tissue Plasma, route gavage, dose level High, time 3 day
Give bare numbers, in IU/L.

See these solved cases before continuing.
MOLECULE	UNIT NAME	ALT
CNC(=C[N+](=O)[O-])NCCSCc1ccc(CN(C)C)o1 [RANITIDINE]	IU/L	41.2
CN/C(=N/CCSCc1nc[nH]c1C)NC#N [CIMETIDINE]	IU/L	40
CCOc1ccc(NC(C)=O)cc1 [PHENACETIN]	IU/L	43.2
O=C(OC[C@H]1O[C@@H](OC(=O)c2cc(O)c(O)c(OC(=O)c3cc(O)c(O)c(O)c3)c2)[C@H](OC(=O)c2cc(O)c(O)c(OC(=O)c3cc(O)c(O)c(O)c3)c2)[C@@H](OC(=O)c2cc(O)c(O)c(OC(=O)c3cc(O)c(O)c(O)c3)c2)[C@@H]1OC(=O)c1cc(O)c(O)c(OC(=O)c2cc(O)c(O)c(O)c2)c1)c1cc(O)c(O)c(OC(=O)c2cc(O)c(O)c(O)c2)c1 [TANNIC ACID]	IU/L	42.6
Cc1nnc2n1-c1ccc(Cl)cc1C(c1ccccc1Cl)=NC2 [TRIAZOLAM]	IU/L	56

Let us move to another entry and its ALT.
Output measured ALT for this item: COC(=O)C1=C(C)NC(C)=C(C(=O)OC)C1c1ccccc1[N+](=O)[O-] [NIFEDIPINE]
41.6

----------
For each record, write down the corresponding Mono.
- Species: Rattus norvegicus
- EXPERIMENT SUMMARY: Open TG-GATES - Regimen: Daily Repeat
- Type: toxicity, organism-based, Sprague-Dawley
- Parameters: regimen Daily Repeat, gender Male, age 6 weeks
- CONDITION PARAMETERS: in vivo, po, 0 mg/kg, […], tissue Blood, route gavage, dose level Control, time 14 day
Give bare numbers, in %.

Solved cases below.
COMPOUND	UNIT NAME	READOUT NUMBER
COC(=O)C1=C(C)NC(C)=C(C(=O)OC)C1c1ccccc1[N+](=O)[O-]	%	3
CCCc1cc(=O)[nH]c(=S)[nH]1	%	4
Nc1c2c(nc3ccccc13)CCCC2	%	2.6
CN(C)CCC(c1ccc(Cl)cc1)c1ccccn1 (stereo not drawn)	%	2.2
O=C(OC[C@H]1O[C@@H](OC(=O)c2cc(O)c(O)c(OC(=O)c3cc(O)c(O)c(O)c3)c2)[C@H](OC(=O)c2cc(O)c(O)c(OC(=O)c3cc(O)c(O)c(O)c3)c2)[C@@H](OC(=O)c2cc(O)c(O)c(OC(=O)c3cc(O)c(O)c(O)c3)c2)[C@@H]1OC(=O)c1cc(O)c(O)c(OC(=O)c2cc(O)c(O)c(O)c2)c1)c1cc(O)c(O)c(OC(=O)c2cc(O)c(O)c(O)c2)c1	%	7
CCOc1ccc(NC(C)=O)cc1	%	2.6
NC1=NC(=O)C(c2ccccc2)O1 (stereo not drawn)	%	2.2
Cc1nnc2n1-c1ccc(Cl)cc1C(c1ccccc1Cl)=NC2	%	2.4
CNC(=C[N+](=O)[O-])NCCSCc1ccc(CN(C)C)o1	%	2.4
CN1C(=O)CCS(=O)(=O)C1c1ccc(Cl)cc1 (stereo not drawn)	%	2

Would you be so kind as to report Mono for each listed record?
1. CC(C)NNC(=O)c1ccncc1
2. CN/C(=N/CCSCc1nc[nH]c1C)NC#N
3. Brc1ccccc1

1: 2.4; 2: 2.8; 3: 2.4
